measured_on: Mu-type opioid receptor (Homo sapiens, UniProt P35372)
Sequence (P35372 whole entry): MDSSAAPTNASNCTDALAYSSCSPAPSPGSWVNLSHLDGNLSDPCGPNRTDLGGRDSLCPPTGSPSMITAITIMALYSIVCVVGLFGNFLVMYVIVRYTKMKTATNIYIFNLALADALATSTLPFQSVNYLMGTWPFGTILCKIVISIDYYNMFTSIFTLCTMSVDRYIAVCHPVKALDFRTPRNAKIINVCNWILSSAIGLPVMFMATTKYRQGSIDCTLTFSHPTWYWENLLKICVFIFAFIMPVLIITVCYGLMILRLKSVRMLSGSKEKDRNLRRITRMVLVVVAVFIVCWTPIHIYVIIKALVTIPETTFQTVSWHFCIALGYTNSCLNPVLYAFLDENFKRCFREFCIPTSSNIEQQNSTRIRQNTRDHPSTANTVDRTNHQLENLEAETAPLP
method_summary: Agonist activity at human MOR expressed in CHO-K1 cells co-expressed with Galphai by cAMP assay
Type: functional, cell-based
Each entry below carries its reported pEC50.
Would you please state pEC50, meaning minus log10 of the concentration in mol/L, as a bare number?

compound: CN(C)C(CNC(=O)NCc1cccc(OC(F)(F)F)c1)c1cccc(F)c1 (stereo not drawn)
pEC50: 10.79

Prompt line: Can you look up the measured pEC50 of CN(C)C(CNC(=O)NCCc1ccc(C(F)(F)F)cc1)c1cccc(F)c1 (stereo not drawn) for me?
Response line: 12.30

Prompt line: Can you look up the measured pEC50 of Cc1ccc(CCNC(=O)NCC(c2cccc(F)c2)N(C)C)cc1 (stereo not drawn) for me?
Response line: 7.82

* * *

measured_on: Mu-type opioid receptor (Homo sapiens)
method_summary: Agonist activity at human MOR expressed in CHO-K1 cells co-expressed with Galphai by cAMP assay relative to control
Assay type: functional, cell-based
condition_parameters: filed as agonist
Each entry below carries its reported Emax.
Write the answer as a number in %, unit excluded.

Record excerpt, results attached:
compound: CN(C)C(CNC(=O)NCCc1ccc(C(F)(F)F)cc1)c1cccc(F)c1 (stereo not drawn)
reading: 88.5
--
compound: Cc1cccc(CNC(=O)NCC(c2cccc(F)c2)N(C)C)c1 (stereo not drawn)
reading: 91.4

Prompt line: Can you look up the measured Emax of CN(C)C(CNC(=O)NCCc1cccc(F)c1)c1cccc(F)c1 (stereo not drawn) for me?
Response line: 90.8
